# MIC values compiled below
# Test system: E. coli
# assay text: Gram negative MIC protocol (OD600, LB, 24 h)
# run parameters: Escherichia coli, read-out: MIC WT E. coli LB Media, wild-type E. coli, LB media, 24 h, OD600
Counter-ions that a name gives are not always drawn.
# number only, unit µM dropped from output

The following molecules have reported results that may help.
[[record]]
molecule = "CC1CCCC(Oc2ccccc2CNC(C)CC2CCCCC2)C1 (centres unmarked)"
measured_result = 150

[[record]]
molecule = "CC(CC1CCCCC1)NCc1ccccc1OC1CCCCC1 (centres unmarked)"
measured_result = 91


Now for a further molecule.
[Q] Tell me the measured MIC of CCc1ccccc1CNCCC1CCCCC1 [B228, hydrochloride] , please.
[A] 170

---

# System: E. coli
# assay text: Gram negative MIC protocol (OD600, LB, 24 h)
# run parameters: Escherichia coli, read-out: MIC WT E. coli LB Media, wild-type E. coli, LB media, 24 h, OD600
Counter-ions that a name gives are not always drawn.
observed property: MIC

The following molecules have reported results that may help.
[[record]]
molecule = "CC(CC1CCCCC1)NCc1ccccc1OCc1cn(C)nn1 (centres unmarked)"
measured_result = "> 150 µM"

[[record]]
molecule = "c1ccc(OCC2CCCCO2)c(CNCCC2CCCCC2)c1 (centres unmarked) [B328, hydrochloride]"
measured_result = "> 150 µM"

[[record]]
molecule = "Fc1ccc(C2CC2NCc2ccccc2)cc1F (stereo in doubt) [B211, hydrochloride]"
measured_result = "> 300 µM"

[[record]]
molecule = "CC(CC1CCCCC1)NCc1ccccc1OCC1CCCO1 (centres unmarked)"
measured_result = "> 150 µM"


Now for a further molecule.
[Q] Given the entry CNC(=O)COc1ccccc1CNC(C)CC1CCCCC1 (centres unmarked) , what MIC was observed with E. coli?
[A] > 150 µM

---

# Test system: E. coli
# assay text: Gram negative MIC protocol (OD600, LB, 24 h)
# run parameters: Escherichia coli, read-out: MIC E. coli delta-TolC LB Media, E. coli delta-TolC, LB media, OD600
# MIC values compiled below

[[record]]
compound = "CC(NCc1ccccc1)C1(C)CC1 (stereo not drawn) [B149]"
measured_result = "> 150 µM"

[[record]]
compound = "FC(F)(F)C(CC1CCCCC1)NCc1ccccc1 (stereo not drawn) [B177]"
measured_result = "> 300 µM"

[[record]]
compound = "Cc1ccc(COc2ccccc2CNC(C)CC2CCCCC2)cc1 (stereo not drawn) [B460]"
measured_result = "< 1 µM"

[[record]]
compound = "CC(CC1CCCCC1)NCc1ccccc1CS(=O)(=O)N[C@H]1C[C@H](C(=O)O)C1 (stereo partly drawn) [B456]"
measured_result = "33 µM"

[[record]]
compound = "c1ccc(CNCCC2CCC2)cc1 [B30]"
measured_result = "> 150 µM"


Now for a further compound.
[Q] Given the entry c1ccc(CNCCC2CSc3ccccc3O2)cc1 (stereo not drawn) [B118] , what MIC was observed with E. coli?
[A] > 150 µM

---

# MIC values compiled below
# Test system: H37RvMA
# assay text: Tuberculosis Alamar Blue/Resazurin assay (MIC)
# Type: cell-based
# run parameters: Mycobacterium tuberculosis, H37RV; read-out: WT H37Rv MTB Activity

The following compounds have reported results that may help.
[[record]]
compound = "c1ccc(CNCC2(c3ccc4c(c3)OCO4)CC2)cc1 [B18]"
assayed_target = "H37RvMA"
measured_result = "> 150 µM"

[[record]]
compound = "CC(Cc1cccc(C(F)(F)F)c1)NCc1ccccc1 (centres unmarked) [B81]"
assayed_target = "H37RvMA"
measured_result = "> 150 µM"

[[record]]
compound = "CC1(C)Cc2cccc(CCNCc3ccccc3)c2O1 [B108]"
assayed_target = "H37RvMA"
measured_result = "> 150 µM"

[[record]]
compound = "C[C@@H](Cc1ccccc1)NCc1ccccc1 [B217]"
assayed_target = "H37RvMA"
measured_result = "> 150 µM"

[[record]]
compound = "C1=Nc2c(cccc2CCNCc2ccccc2)C1 [B48]"
assayed_target = "H37RvMA"
measured_result = "150 µM"


[Q] Tell me the measured MIC of C[C@@H](CC1CCCCC1)NCc1ccccc1 [B94] , please.
[A] > 150 µM

[Q] Further, for C[C@H](CC1CCCCC1)NCc1ccccc1 [B95] ?
[A] 55 µM

[Q] Further, for Clc1cc(CCNCc2ccccc2)cc2c1OCCO2 [B55] ?
[A] 150 µM

---

# System: H37RvMA
# assay text: Tuberculosis Alamar Blue/Resazurin assay (MIC)
# Type: cell-based
# run parameters: Mycobacterium tuberculosis, H37RV; read-out: WT H37Rv MTB Activity
Where a name gives a salt, the structure may show the parent alone.
# MIC values compiled below

The following molecules have reported results that may help.
[[record]]
molecule = "NC(=O)c1ccccc1CNCCC1CCCCC1 [B259, trifluoroacetate]"
observed_property = "MIC"
measured_result = "> 150 µM"

[[record]]
molecule = "CC1(c2ccc(F)cc2)N(Cc2ccccc2)C12CC2 (stereo not drawn)"
observed_property = "MIC"
measured_result = "> 150 µM"

[[record]]
molecule = "CC(Cc1cnn(C)c1)NCc1ccccc1 (stereo not drawn)"
observed_property = "MIC"
measured_result = "> 150 µM"

[[record]]
molecule = "CC(CC1CCC1)NCc1ccccc1 (stereo not drawn)"
observed_property = "MIC"
measured_result = "> 150 µM"


[Q] Tell me the measured MIC of `COc1ccc(CC(C)(C)NCc2ccccc2)cc1` , please.
[A] > 150 µM

[Q] Further, for `C[C@H](NCc1ccccc1)[C@H](O)c1ccc2c(c1)OCO2` ?
[A] > 150 µM

---

# Tested on: E. coli
# assay text: Gram negative MIC protocol (OD600, LB, 24 h)
# run parameters: Escherichia coli, read-out: MIC WT E. coli LB Media, wild-type E. coli, LB media, 24 h, OD600
# MIC values compiled below

The following compounds have reported results that may help.
[[record]]
compound = "COc1ccc2cccc(CCNCc3ccccc3)c2c1"
observed_property = "MIC"
measured_result = "> 300 µM"

[[record]]
compound = "CC(CC1CCCCC1)NCc1ccccc1OCc1ncccn1 (centres unmarked)"
observed_property = "MIC"
measured_result = "> 150 µM"

[[record]]
compound = "c1ccc(CNCCC2CCCCO2)cc1 (centres unmarked)"
observed_property = "MIC"
measured_result = "> 300 µM"

[[record]]
compound = "CC(CC1CCCCC1)NCc1ccccc1OC1CCCC1 (centres unmarked)"
observed_property = "MIC"
measured_result = "> 150 µM"

[[record]]
compound = "COc1ccc2ccccc2c1CCNCc1ccccc1"
observed_property = "MIC"
measured_result = "> 300 µM"

[[record]]
compound = "CC(C)(C)OC(=O)N(Cc1ccccc1)C(C=O)CC1CCCCC1 (centres unmarked)"
observed_property = "MIC"
measured_result = "> 300 µM"


[Q] Tell me the measured MIC of Cc1nc(COc2ccccc2CNC(C)CC2CCCCC2)oc1C (centres unmarked) , please.
[A] > 150 µM

---

# Tested on: E. coli
# assay text: Gram negative MIC protocol (OD600, LB, 24 h)
# run parameters: Escherichia coli, read-out: MIC WT E. coli LB Media, wild-type E. coli, LB media, 24 h, OD600
observed property: MIC (µM)
# number only, unit µM dropped from output

The following compounds have reported results that may help.
[[record]]
compound = "CC(O)COc1ccccc1CNC(C)CC1CCCCC1 (stereo not drawn)"
observed_property = "MIC"
measurement_unit = "µM"
measured_result = 91

[[record]]
compound = "CC(CC1CCCCC1)NCc1ccccc1OCC(O)C(C)C (stereo not drawn)"
observed_property = "MIC"
measurement_unit = "µM"
measured_result = 150

[[record]]
compound = "CC(CC1CCCCC1)NCc1ccccc1OCc1cc(Br)no1 (stereo not drawn)"
observed_property = "MIC"
measurement_unit = "µM"
measured_result = 150


Now for a further compound.
[Q] Tell me the measured MIC of CC(CC1CCCCC1)NCc1ccccc1OC(F)F (stereo not drawn) , please.
[A] 91

---

# Test system: E. coli
# assay text: Gram negative MIC protocol (OD600, LB, 24 h)
# run parameters: Escherichia coli, read-out: MIC WT E. coli LB Media, wild-type E. coli, LB media, 24 h, OD600
Where a name gives a salt, the structure may show the parent alone.
# MIC values compiled below
# number only, unit µM dropped from output

[[record]]
compound = "CC(CC1CCCCC1)NCc1ccccc1OCc1cccnc1 (stereo not shown)"
measured_result = 91

[[record]]
compound = "CC(CC1CCCCC1)NCc1ccccc1OCCOCC(F)(F)C(F)(F)F (stereo not shown)"
measured_result = 150

[[record]]
compound = "Oc1ccccc1CNCCC1CCCCC1"
measured_result = 54


[Q] Tell me the measured MIC of c1coc(-c2ccccc2CNCCC2CCCCC2)c1 [B236, hydrochloride] , please.
[A] 54

[Q] Further, for CC(CC1CCCCC1)NCc1ccccc1OCc1nnn(C)n1 (stereo not shown) ?
[A] 150

[Q] Further, for CC(CC1CCCCC1)NCc1ccccc1OCC(=O)N1CCNC1=O (stereo not shown) ?
[A] 150

Entry source: patent US11261201B2
